test: The drug is tested on Bifidobacterium breve strain: DSM20213 for biotransformation. The drug concentrations were measured before and after a 12-h incubation by liquid-chromatography-coupled mass spectrometry (LC–MS); details: 2 µM
QUANTITY_KIND: Bacterial Biotransformation

COMPOUND | REPORTED
CC(Oc1c(Cl)cccc1Cl)C1=NCCN1 (centres undefined) | Compound metabolized
CC(=O)OCC(=O)NCCCOc1cccc(CN2CCCCC2)c1 [ROXATIDINE ACETATE] | Compound metabolized
CN(C)CCc1c[nH]c2ccc(Cn3cncn3)cc12.O=C(O)c1ccccc1 [RIZATRIPTAN BENZOATE] | Compound NOT metabolized
COc1cc2c(c(OC)c1OC)-c1ccc(OC)c(=O)cc1[C@@H](NC(C)=O)CC2 | Compound NOT metabolized

###

assay: The drug is tested on Eubacterium hallii strain: DSM3353 for biotransformation. The drug concentrations were measured before and after a 12-h incubation by liquid-chromatography-coupled mass spectrometry (LC–MS); conditions: anaerobutyricum hallii, 2 µM

COMPOUND | Bacterial Biotransformation
O=C(O)c1cc(/N=N/c2ccc(S(=O)(=O)Nc3ccccn3)cc2)ccc1O | Compound metabolized
Cc1nc2n(c(=O)c1CCN1CCC(c3noc4cc(F)ccc34)CC1)CCCC2O (stereo not drawn) | Compound metabolized

###

experiment: The drug is tested on Parabacteroides merdae strain: ATCC43184 for biotransformation. The drug concentrations were measured before and after a 12-h incubation by liquid-chromatography-coupled mass spectrometry (LC–MS); details: 2 µM
QUANTITY_KIND: Bacterial Biotransformation

COMPOUND | QUANTITY_KIND | REPORTED
CCOC(=O)C1=C(C)NC(C)=C(C(=O)OC)C1c1cccc([N+](=O)[O-])c1 (stereo unspecified) [NITRENDIPINE] | Bacterial Biotransformation | Compound metabolized
OCCN(CCO)c1nc(N2CCCCC2)c2nc(N(CCO)CCO)nc(N3CCCCC3)c2n1 [DIPYRIDAMOLE] | Bacterial Biotransformation | Compound metabolized
C#C[C@]1(O)CC[C@H]2[C@@H]3CCC4=Cc5oncc5C[C@]4(C)[C@H]3CC[C@@]21C [DANAZOL] | Bacterial Biotransformation | Compound metabolized
Cc1nc(-c2ccc(OCC(C)C)c(C#N)c2)sc1C(=O)O [FEBUXOSTAT] | Bacterial Biotransformation | Compound NOT metabolized

Now let's try a different one.
Q: Tell me the measured Bacterial Biotransformation of CC(C)NCC(O)COc1ccc(CCOCC2CC2)cc1 (stereo unspecified) [BETAXOLOL] , please.
Ans: Compound NOT metabolized

###

test: The drug is tested on Blautia luti strain: DSM14534 for biotransformation. The drug concentrations were measured before and after a 12-h incubation by liquid-chromatography-coupled mass spectrometry (LC–MS); format: ADME; set-up: dose 2 uM, timepoint 0 vs 12 hours; conditions: 2 µM
QUANTITY_KIND: Bacterial Biotransformation

COMPOUND | REPORTED
CC(C)NCC(O)COc1ccc(CCOCC2CC2)cc1 (stereo not drawn) [BETAXOLOL] | Compound NOT metabolized
CC(=O)OCC(=O)NCCCOc1cccc(CN2CCCCC2)c1 [ROXATIDINE ACETATE] | Compound metabolized
CCN(CC)C(=O)/C(C#N)=C/c1cc(O)c(O)c([N+](=O)[O-])c1 [ENTACAPONE] | Compound metabolized
Cc1ccc(/C(=C\CN2CCCC2)c2ccccn2)cc1 [TRIPROLIDINE] | Compound NOT metabolized
CCN(CC)C(=O)C1(c2ccccc2)CC1CN (stereo not drawn) | Compound NOT metabolized
COc1cc2c(c(OC)c1OC)-c1ccc(OC)c(=O)cc1[C@@H](NC(C)=O)CC2 [COLCHICINE] | Compound NOT metabolized
O=P1(N(CCCl)CCCl)NCCCO1 (stereo not drawn) [CYCLOPHOSPHAMIDE ANHYDROUS] | Compound NOT metabolized
Cc1ccc(S(=O)(=O)NC(=O)NN2CC3CCCC3C2)cc1 (stereo not drawn) [GLICLAZIDE] | Compound NOT metabolized

Q: Tell me the measured Bacterial Biotransformation of CN(C)CCC=C1c2ccccc2COc2ccccc21 [DOXEPIN] , please.
Ans: Compound NOT metabolized

Q: Same again, this time with CC(=O)O[C@]1(C(C)=O)CC[C@H]2[C@@H]3C=C(Cl)C4=CC(=O)[C@@H]5C[C@@H]5[C@]4(C)[C@H]3CC[C@@]21C [CYPROTERONE ACETATE]
Ans: Compound NOT metabolized

Q: Same again, this time with COc1ccnc(C[S+]([O-])c2nc3ccc(OC(F)F)cc3[nH]2)c1OC (stereo not drawn) [PANTOPRAZOLE]
Ans: Compound metabolized

Q: Same again, this time with CN1CCOC(c2ccccc2)c2ccccc2C1 (stereo not drawn) [NEFOPAM]
Ans: Compound NOT metabolized

###

biological target: SGNH hydrolase-type esterase domain-containing protein (Phocaeicola dorei); assay: The drug is tested on Bacteroides dorei strain: DSM17855 for biotransformation. The drug concentrations were measured before and after a 12-h incubation by liquid-chromatography-coupled mass spectrometry (LC–MS); type: ADME; parameters: dose 2 uM; settings: 2 µM
Sequence (B6W293 whole entry, the tested form may be a part): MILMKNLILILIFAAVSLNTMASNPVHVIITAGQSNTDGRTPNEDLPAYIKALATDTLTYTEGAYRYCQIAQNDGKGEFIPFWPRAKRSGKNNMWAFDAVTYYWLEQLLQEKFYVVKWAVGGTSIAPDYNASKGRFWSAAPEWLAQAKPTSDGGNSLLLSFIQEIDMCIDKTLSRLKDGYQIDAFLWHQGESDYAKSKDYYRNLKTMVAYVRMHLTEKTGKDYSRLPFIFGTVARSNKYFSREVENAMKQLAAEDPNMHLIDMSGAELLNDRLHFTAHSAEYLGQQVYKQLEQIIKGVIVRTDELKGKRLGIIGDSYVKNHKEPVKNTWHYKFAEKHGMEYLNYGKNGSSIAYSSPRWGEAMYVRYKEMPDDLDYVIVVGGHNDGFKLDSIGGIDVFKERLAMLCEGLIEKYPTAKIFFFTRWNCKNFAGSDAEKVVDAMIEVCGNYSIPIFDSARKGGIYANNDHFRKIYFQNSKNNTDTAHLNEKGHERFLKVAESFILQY
QUANTITY_KIND: Bacterial Biotransformation

MOLECULE | Bacterial Biotransformation
COc1ccnc(C[S+]([O-])c2nc3ccc(OC(F)F)cc3[nH]2)c1OC (stereo not drawn) [PANTOPRAZOLE] | Compound metabolized
C[C@]12CCC(=O)C=C1[C@@H]1C[C@@H]1[C@H]1[C@@H]3[C@@H]4C[C@@H]4[C@@]4(CCC(=O)O4)[C@@]3(C)CC[C@@H]12 [DROSPIRENONE] | Compound NOT metabolized
C#C[C@]1(O)CC[C@H]2[C@@H]3CCC4=Cc5oncc5C[C@]4(C)[C@H]3CC[C@@]21C [DANAZOL] | Compound NOT metabolized
CCS(=O)(=O)CCn1c([N+](=O)[O-])cnc1C [TINIDAZOLE] | Compound NOT metabolized
C[C@@H]1CC[C@H]2[C@@H](C)C(=O)O[C@@H]3O[C@@]4(C)CC[C@@H]1[C@]32OO4 [ARTEMISININ] | Compound NOT metabolized
C#C[C@]1(OC(C)=O)CC[C@H]2[C@@H]3CCC4=CC(=O)CC[C@@H]4[C@H]3CC[C@@]21C [NORETHINDRONE ACETATE] | Compound NOT metabolized
Nc1ccc(/N=N/c2ccccc2)c(N)n1 [PHENAZOPYRIDINE] | Compound NOT metabolized

Now let's try a different one.
Q: Tell me the measured Bacterial Biotransformation of CC(=O)OCC(CCn1cnc2cnc(N)nc21)COC(C)=O [FAMCICLOVIR] , please.
Ans: Compound metabolized

###

assay: The drug is tested on Bacteroides uniformis strain: ATCC8492 for biotransformation. The drug concentrations were measured before and after a 12-h incubation by liquid-chromatography-coupled mass spectrometry (LC–MS); details: 2 µM
QUANTITY_KIND: Bacterial Biotransformation

Here are 4 compounds together with their reported answers.
COMPOUND | REPORTED
CC(C)(C)NC(=O)[C@H]1CC[C@H]2[C@@H]3CC[C@H]4NC(=O)C=C[C@]4(C)[C@H]3CC[C@]12C [FINASTERIDE] | Compound metabolized
CC(=O)O[C@H]1C(=O)[C@@]2(C)[C@H]([C@H](OC(=O)c3ccccc3)[C@]3(O)C[C@H](OC(=O)[C@H](O)[C@@H](NC(=O)c4ccccc4)c4ccccc4)C(C)=C1C3(C)C)[C@]1(OC(C)=O)CO[C@@H]1C[C@@H]2O | Compound metabolized
Cc1ccc(-c2nc3ccc(C)cn3c2CC(=O)N(C)C)cc1 | Compound NOT metabolized
CCc1cccc2c3c([nH]c12)C(CC)(CC(=O)O)OCC3 (stereo not given) | Compound metabolized

Now let's try a different one.
Q: Tell me the measured Bacterial Biotransformation of CCN(CC)CCNC(=O)c1cc(S(C)(=O)=O)ccc1OC [TIAPRIDE] , please.
Ans: Compound NOT metabolized

###

experiment: The drug is tested on Parabacteroides merdae strain: ATCC43184 for biotransformation. The drug concentrations were measured before and after a 12-h incubation by liquid-chromatography-coupled mass spectrometry (LC–MS); conditions: 2 µM
QUANTITY_KIND: Bacterial Biotransformation

Here are 6 molecules together with their reported answers.
MOLECULE | Bacterial Biotransformation
CCCN1C[C@H](CSC)C[C@@H]2c3cccc4[nH]cc(c34)C[C@H]21.CS(=O)(=O)O [PERGOLIDE MESYLATE] | Compound NOT metabolized
Cc1cc2c(cc1S(N)(=O)=O)S(=O)(=O)CCC2 | Compound NOT metabolized
Br.COc1ccc2c(c1)[C@]13CCCC[C@@H]1[C@H](C2)N(C)CC3.O [DEXTROMETHORPHAN HYDROBROMIDE] | Compound NOT metabolized
O=C(O[C@H]1C[C@H]2CC[C@@H](C1)[N+]21CCCC1)C(O)(c1ccccc1)c1ccccc1.[Cl-] [TROSPIUM CHLORIDE] | Compound NOT metabolized
OCCN1CCN(CCCN2c3ccccc3Sc3ccc(C(F)(F)F)cc32)CC1 | Compound NOT metabolized
CCCC1O[C@@H]2C[C@H]3[C@@H]4CCC5=CC(=O)C=C[C@]5(C)[C@H]4[C@@H](O)C[C@]3(C)[C@]2(C(=O)CO)O1 (stereo not given in full) [BUDESONIDE] | Compound metabolized

Now let's try a different one.
Q: Tell me the measured Bacterial Biotransformation of CN1C[C@H](C(=O)N[C@]2(C)O[C@@]3(O)[C@@H]4CCCN4C(=O)[C@H](Cc4ccccc4)N3C2=O)C=C2c3cccc4[nH]cc(c34)C[C@H]21.CN1C[C@H](C(=O)N[C@]2(C)O[C@@]3(O)[C@@H]4CCCN4C(=O)[C@H](Cc4ccccc4)N3C2=O)C=C2c3cccc4[nH]cc(c34)C[C@H]21.O=C(O)C(O)C(O)C(=O)O [ERGOTAMINE TARTRATE] , please.
Ans: Compound metabolized

Data origin: ChEMBL document CHEMBL5303573
